pIC50 listing for selected molecules.
- study_system: Genome polyprotein (dengue virus type 2, UniProt P29990)
- assay_remarks: Inhibition of Dengue virus serotype 2 NS2B-NS3 protease expressed in Escherichia coli BL21 lambda (DE3) cells using Abz-Nle-Lys-Arg-Arg-Ser-3-(NO2)Tyr as substrate preincubated for 15 mins followed by substrate addition and measured for 15 mins by FRET assay
The quantity pIC50 is defined as the negative base-10 logarithm of the molar concentration.

Recorded results for 5 molecules are shown here.
[[record]]
smiles_code = "CCCCCCC(=O)N[C@H](C(=O)NCc1ccc(NC(=N)N)cc1)c1ccc(OCc2ccccc2)cc1.O=C(O)C(F)(F)F"
study_system = "Genome polyprotein (dengue virus type 2, UniProt P29990)"
measured_attribute = "pIC50"
recorded_measurement = 5.17

[[record]]
smiles_code = "CCCCCC(=O)N[C@H](C(=O)NCc1ccc(NC(=N)N)cc1)c1ccc(OCc2c(Cl)cccc2Cl)cc1.O=C(O)C(F)(F)F"
study_system = "Genome polyprotein (dengue virus type 2, UniProt P29990)"
measured_attribute = "pIC50"
recorded_measurement = 5.54

[[record]]
smiles_code = "CCCCCC(=O)N[C@@H](C(=O)NCc1ccc(NC(=N)N)cc1)c1ccc(OCc2ccc(Cl)c(Cl)c2)cc1.O=C(O)C(F)(F)F"
study_system = "Genome polyprotein (dengue virus type 2, UniProt P29990)"
measured_attribute = "pIC50"
recorded_measurement = 5.24

[[record]]
smiles_code = "CCCCCC(=O)N[C@H](C(=O)NCc1ccc(NC(=N)N)cc1)c1ccc(OCc2ccc(C(F)(F)F)cc2)cc1.O=C(O)C(F)(F)F"
study_system = "Genome polyprotein (dengue virus type 2, UniProt P29990)"
measured_attribute = "pIC50"
recorded_measurement = 5.13

[[record]]
smiles_code = "CCCCCCCCCC(=O)N[C@H](C(=O)NCc1ccc(NC(=N)N)cc1)c1ccc(OCc2ccccc2)cc1.O=C(O)C(F)(F)F"
study_system = "Genome polyprotein (dengue virus type 2, UniProt P29990)"
measured_attribute = "pIC50"
recorded_measurement = 5.64


Respond only with pIC50 recorded for CCCCCC(=O)N[C@H](C(=O)NCc1ccc(CN)cc1)c1ccc(OCc2ccccc2)cc1.O=C(O)C(F)(F)F
5.31

Respond only with pIC50 recorded for N=C(N)Nc1ccc(CNC(=O)[C@@H](NC(=O)CC2CCCCC2)c2ccc(OCc3ccccc3)cc2)cc1.O=C(O)C(F)(F)F
5.05

====

- assay_remarks: Cytotoxicity against human HeLa cells assessed as reduction in cell viability measured after 24 hrs by celltiter-blue assay
- Type: cell-based
CC50 at 24 h listing for selected molecules.

[[record]]
smiles_code = "CCCCCC(=O)N[C@H](C(=O)NCc1cccc(CN)c1)c1ccc(OCc2ccccc2)cc1"
measured_attribute = "CC50 at 24 h"
recorded_measurement = "> 12.5 µM"


Respond only with CC50 at 24 h recorded for N=C(N)Nc1ccc(CNC(=O)[C@@H](NC(=O)c2ccc(OC3CCCCC3)cc2)c2ccc(OCc3ccccc3)cc2)cc1.O=C(O)C(F)(F)F
> 12.5 µM

====

- study_system: Genome polyprotein (dengue virus type 2)
- assay_remarks: Inhibition of Dengue virus serotype 2 NS2B-NS3 protease transfected in human HeLa cells measured after 24 hrs by Renilla-luciferase reporter gene assay
measured_attribute: EC50 (µM)
Your answer should be a plain number; it is taken to be in µM.

Recorded results for 2 compounds are shown here.
[[record]]
smiles_code = "CCCCCC(=O)N[C@H](C(=O)NCCCCCCN)c1ccc(OCc2ccccc2)cc1"
quantity_unit = "µM"
recorded_measurement = 13

[[record]]
smiles_code = "CCCCCC(=O)N[C@@H](C(=O)NCc1ccc(NC(=N)N)cc1)c1ccc(OCc2ccccc2)cc1.O=C(O)C(F)(F)F"
quantity_unit = "µM"
recorded_measurement = 9.9


Respond only with EC50 recorded for CCCCCC(=O)N[C@H](C(=O)NCc1cccc(CN)c1)c1ccc(OCc2ccccc2)cc1
4.2

Respond only with EC50 recorded for CCCCCC(=O)N[C@H](C(=O)Nc1ccc2[nH]ncc2c1)c1ccc(OCc2ccccc2)cc1
6.9

Respond only with EC50 recorded for N=C(N)Nc1ccc(CNC(=O)[C@@H](NC(=O)Cc2ccc(-c3ccccc3)cc2)c2ccc(OCc3ccccc3)cc2)cc1.O=C(O)C(F)(F)F
20

Respond only with EC50 recorded for CCCCCC(=O)N[C@H](C(=O)NCCCCCCNC(=N)N)c1ccc(OCc2ccccc2)cc1
7.7

Respond only with EC50 recorded for N=C(N)Nc1ccc(CNC(=O)[C@@H](NC(=O)c2ccc(-c3cccs3)s2)c2ccc(OCc3ccccc3)cc2)cc1.O=C(O)C(F)(F)F
9.3

Respond only with EC50 recorded for N=C(N)Nc1ccc(CNC(=O)[C@@H](NC(=O)c2ccc(-c3ccccc3)cc2)c2ccc(OCc3ccccc3)cc2)cc1.O=C(O)C(F)(F)F
7.6

====

- assay_remarks: Cytotoxicity against human HeLa cells assessed as reduction in cell viability measured after 24 hrs by celltiter-blue assay
- Assay type: cell-based
measured_attribute: CC50 at 24 h

Recorded results for 3 compounds are shown here.
[[record]]
smiles_code = "CCCCCC(=O)N[C@H](C(=O)NCCCCCCN)c1ccc(OCc2ccccc2)cc1"
recorded_measurement = "> 50 µM"

[[record]]
smiles_code = "CCCCCCC(=O)N[C@H](C(=O)NCc1ccc(NC(=N)N)cc1)c1ccc(OCc2ccccc2)cc1.O=C(O)C(F)(F)F"
recorded_measurement = "> 50 µM"

[[record]]
smiles_code = "CCCCCC(=O)N[C@H](C(=O)NCc1ccc(NC(=N)N)cc1)c1ccc(OCc2ccc(C(C)(C)C)cc2)cc1.O=C(O)C(F)(F)F"
recorded_measurement = "> 12.5 µM"


Next compound, please.
Respond only with CC50 at 24 h recorded for CCCCCC(=O)N[C@H](C(=O)Nc1ccc(NC(=N)N)cc1)c1ccc(OCc2ccccc2)cc1.O=C(O)C(F)(F)F
≥ 12.5 µM

====

- study_system: UniProt P00734
- assay_remarks: Inhibition of thrombin (unknown origin) at 25 uM using Boc-Val-Pro-Arg-AMC as substrate preincubated for 15 mins followed by substrate addition and measured for 15 mins by fluorimetric assay
- applied_conditions: 0.25 h
measured_attribute: inhibition (INH)

[[record]]
smiles_code = "N=C(N)NCCC[C@H](NC(=O)c1ccc(/C=C2\\SC(=O)N(C3CCC3)C2=O)cc1)C(=O)N[C@@H](CCCCN)C(=O)N[C@H](C(N)=O)c1ccccc1"
recorded_measurement = "Not Active"

[[record]]
smiles_code = "CCCCCC(=O)N[C@H](C(=O)NCc1ccc(NC(=N)N)cc1)c1ccc(OCc2ccc(C(C)(C)C)cc2)cc1.O=C(O)C(F)(F)F"
recorded_measurement = "Not Active"

[[record]]
smiles_code = "N=C(N)Nc1ccc(CNC(=O)[C@@H](NC(=O)c2cccc(Oc3ccccc3)c2)c2ccc(OCc3ccccc3)cc2)cc1.O=C(O)C(F)(F)F"
recorded_measurement = "Not Active"


====

inhibition listing for selected compounds.
- study_system: Genome polyprotein (dengue virus type 2) (UniProt P29990)
- assay_remarks: Inhibition of Dengue virus serotype 2 NS2B-NS3 protease expressed in Escherichia coli BL21 lambda (DE3) cells at 50 uM using Abz-Nle-Lys-Arg-Arg-Ser-3-(NO2)Tyr as substrate preincubated for 15 mins followed by substrate addition and measured for 15 mins by FRET assay relative to control
Residues, ends and D or L forms follow the SMILES beside them. *: point of attachment. Bz = O=C(c1ccccc1)*
Your answer should be a plain number; it is taken to be in %.

Recorded results for 4 compounds are shown here.
[[record]]
compound = "CCCCCC(=O)N[C@H](C(=O)NCc1ccc(CNC(=N)N)cc1)c1ccc(OCc2ccccc2)cc1.O=C(O)C(F)(F)F"
recorded_measurement = 104

[[record]]
compound = "N=C(N)NCCC[C@H](NC(=O)c1ccccc1)C(=O)N[C@@H](CCCCN)C(=O)NCC(N)=O (Bz-Arg-Lys-Gly-NH2)"
recorded_measurement = 68.6

[[record]]
compound = "CCCCCC(=O)N[C@H](C(=O)NCc1ccc(NC(=N)N)nc1)c1ccc(OCc2ccccc2)cc1.O=C(O)C(F)(F)F"
recorded_measurement = 93.9

[[record]]
compound = "CCCCCC(=O)N[C@H](C(=O)NCc1ccc(NC(=N)N)cc1)c1ccc(OCc2cccc(OC)c2)cc1.O=C(O)C(F)(F)F"
recorded_measurement = 32.5


Respond only with inhibition recorded for N=C(N)Nc1ccc(CNC(=O)[C@@H](NC(=O)c2ccccc2-c2ccccc2)c2ccc(OCc3ccccc3)cc2)cc1.O=C(O)C(F)(F)F
93.3

Respond only with inhibition recorded for N=C(N)Nc1ccc(CNC(=O)[C@@H](NC(=O)Cc2ccc(-c3ccccc3)cc2)c2ccc(OCc3c(Cl)cccc3Cl)cc2)cc1.O=C(O)C(F)(F)F
101

Respond only with inhibition recorded for CCCCC(=O)N[C@H](C(=O)NCc1ccc(NC(=N)N)cc1)c1ccc(OCc2ccccc2)cc1.O=C(O)C(F)(F)F
22

Respond only with inhibition recorded for N=C(N)Nc1ccc(CNC(=O)[C@@H](NC(=O)c2ccc(OCc3ccccc3)cc2)c2ccc(OCc3ccccc3)cc2)cc1.O=C(O)C(F)(F)F
106

Respond only with inhibition recorded for CCCCCC(=O)N[C@@H](C(=O)NCc1ccc(CN)cc1)c1ccc(OCc2ccc(Cl)c(Cl)c2)cc1.O=C(O)C(F)(F)F
95.2

Respond only with inhibition recorded for CCCCCC(=O)N[C@H](C(=O)NCc1ccc(NC(=N)N)cc1)c1ccc(OCc2ccc(C(F)(F)F)cc2)cc1.O=C(O)C(F)(F)F
96.3

Respond only with inhibition recorded for N=C(N)Nc1ccc(CNC(=O)[C@@H](NC(=O)c2cccc(Oc3ccccc3)c2)c2ccc(OCc3ccccc3)cc2)cc1.O=C(O)C(F)(F)F
101

Respond only with inhibition recorded for CCCCCC(=O)N[C@H](C(=O)Nc1ccc(NC(=N)N)cc1)c1ccc(OCc2ccccc2)cc1.O=C(O)C(F)(F)F
62.6

Respond only with inhibition recorded for N=C(N)Nc1ccc(CNC(=O)[C@@H](NC(=O)c2ccccc2)c2ccc(OCc3ccccc3)cc2)cc1.O=C(O)C(F)(F)F
39

Respond only with inhibition recorded for CCCCCC(=O)N[C@H](C(=O)NCc1ccc(NC(=N)N)cc1)c1ccc(OCc2ccc(C(C)(C)C)cc2)cc1.O=C(O)C(F)(F)F
98.1

Respond only with inhibition recorded for CCCCCC(=O)N[C@H](C(=O)NCc1ccc(C(=O)NN)cc1)c1ccc(OCc2ccccc2)cc1
28.3

Respond only with inhibition recorded for N=C(N)Nc1ccc(CNC(=O)[C@@H](NC(=O)c2ccc(OC3CCCCC3)cc2)c2ccc(OCc3ccccc3)cc2)cc1.O=C(O)C(F)(F)F
98.2

Respond only with inhibition recorded for CCCCCC(=O)N[C@H](C(=O)NCc1ccc(CN)cc1)c1ccc(OCc2ccccc2)cc1.O=C(O)C(F)(F)F
94.9
